Values were extracted from patent US8247615B2.

test: Solubility of zeaxanthin in solvents (saturated solution, residue weighed); format: physicochemical; details: organic solvent or mixture, thermodynamic from solid; solvent THF (tetrahydrofuran)
measure_name: solubility

Output solubility of CC1=C(/C=C/C(C)=C/C=C/C(C)=C/C=C/C=C(C)/C=C/C=C(C)/C=C/C2=C(C)CC(O)CC2(C)C)C(C)(C)CC(O)C1 (stereo not shown) [Zeaxanthin, zeaxanthin] > 20.4 mg/mL

###

experiment: Solubility of zeaxanthin in solvents (saturated solution, residue weighed); type: physicochemical; settings: organic solvent or mixture, thermodynamic from solid; solvent IPA (isopropyl alcohol)
measure_name: solubility (µg/mL)
Response body: numeric value in µg/mL, unit text excluded.

Give solubility for the following molecule: CC1=C(/C=C/C(C)=C/C=C/C(C)=C/C=C/C=C(C)/C=C/C=C(C)/C=C/C2=C(C)CC(O)CC2(C)C)C(C)(C)CC(O)C1 (stereo not shown) 81

###

assay: Solubility of zeaxanthin in solvents (saturated solution, residue weighed); type: physicochemical; conditions: organic solvent or mixture, thermodynamic from solid; solvent EtOH (ethanol)
measure_name: solubility (µg/mL)
Reply numerically in µg/mL, unit not repeated.

Identify the reported solubility for the following entry. CC1=C(/C=C/C(C)=C/C=C/C(C)=C/C=C/C=C(C)/C=C/C=C(C)/C=C/C2=C(C)CC(O)CC2(C)C)C(C)(C)CC(O)C1 (stereo not shown) 40

###

test: Solubility of zeaxanthin in solvents (saturated solution, residue weighed); assay type: physicochemical; details: organic solvent or mixture, thermodynamic from solid; solvent MtBE (methyl tert-butyl ether)
measure_name: solubility
# do not omit the unit; it follows the number

Tell us which solubility value is on record for CC1=C(/C=C/C(C)=C/C=C/C(C)=C/C=C/C=C(C)/C=C/C=C(C)/C=C/C2=C(C)CC(O)CC2(C)C)C(C)(C)CC(O)C1 (stereo not shown) 726 µg/mL
